Examples of compounds with documented pIC50 follow.
- tested.target: stearoyl-CoA desaturase (SCD) (Rattus norvegicus)
- Construct: The microsomes were quickly thawed and added to assay buffer so that a concentration of 0.4 mg/ml was achieved; from tissue
- Sequence (P07308 whole entry): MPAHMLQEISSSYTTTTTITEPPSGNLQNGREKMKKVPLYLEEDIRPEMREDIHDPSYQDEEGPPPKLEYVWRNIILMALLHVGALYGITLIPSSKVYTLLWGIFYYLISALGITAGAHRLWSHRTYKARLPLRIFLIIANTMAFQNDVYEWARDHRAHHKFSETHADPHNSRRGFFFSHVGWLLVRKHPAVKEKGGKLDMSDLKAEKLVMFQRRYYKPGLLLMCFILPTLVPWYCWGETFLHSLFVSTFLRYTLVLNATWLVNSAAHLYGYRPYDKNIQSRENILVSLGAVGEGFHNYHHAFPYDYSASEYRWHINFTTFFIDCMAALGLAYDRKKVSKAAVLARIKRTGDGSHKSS
- test.details: SCD assay with rat liver microsomes ([3H]stearoyl CoA, adapted from Talamo and Bloch)
- Assay type: biochemical
- measurement.conditions: Table 2 (Example 21, procedures of Example 20); rat liver microsomes, [3H]stearoyl CoA substrate
Would you please state pIC50, meaning minus log10 of the concentration in mol/L, as a bare number?

In: Report value only: pIC50, stearoyl-CoA desaturase (SCD) (Rattus norvegicus), `O=C(CO)Nc1ccc2ncn(CCCNS(=O)(=O)c3cc(Cl)ccc3Cl)c(=O)c2c1`
Out: 4.68

In: Report value only: pIC50, stearoyl-CoA desaturase (SCD) (Rattus norvegicus), `O=C(CO)Nc1ccc2c(=O)n(CCCOc3cc(Cl)ccc3Cl)cnc2c1`
Out: 7.07

In: Report value only: pIC50, stearoyl-CoA desaturase (SCD) (Rattus norvegicus), `O=C(CO)Nc1ccc2ncn(CCc3ccc(Cl)cc3Cl)c(=O)c2c1`
Out: 5.31

In: Report value only: pIC50, stearoyl-CoA desaturase (SCD) (Rattus norvegicus), `O=C(Nc1ccc2ncn(Cc3ccc4ccccc4c3)c(=O)c2c1)OCc1ccccc1`
Out: 6.14

In: Report value only: pIC50, stearoyl-CoA desaturase (SCD) (Rattus norvegicus), `O=C(CO)Nc1ccc2ncn(Cc3cccc(COc4cc(Cl)ccc4Cl)c3)c(=O)c2c1`
Out: 6.31

In: Report value only: pIC50, stearoyl-CoA desaturase (SCD) (Rattus norvegicus), `C[C@@H](c1ccc(Cl)c(Cl)c1)n1cnc2cc(NC(=O)CO)ccc2c1=O`
Out: 5.74

In: Report value only: pIC50, stearoyl-CoA desaturase (SCD) (Rattus norvegicus), O=C(Nc1ccc2ncn(Cc3ccc(Cl)c(Cl)c3)c(=O)c2c1)C(O)CO (centres unmarked)
Out: 5.41

In: Report value only: pIC50, stearoyl-CoA desaturase (SCD) (Rattus norvegicus), `O=C(Nc1ccc2ncn(CCCCOc3cc(Cl)ccc3Cl)c(=O)c2c1)OCc1ccccc1`
Out: 6.82

Where do these numbers come from? They come from patent US20090105283A1.
